# System: SKBR3 cells
# assay.procedure: SKBR3 Cell Viability Assay
# Format: cell-based
# study.conditions: 72 hours, CellTiter Glo, read-out: MCL1 CV SKBR3 EC50
# Description: SKBR3 Cell Viability Assay Materials […] The cell viability assay was conducted in a 384-well tissue culture plate (Grenier 781086, Monroe, N.C.) in a total volume of 70 μL. […] Luminescence was read by Envision multimode reader (PerkinElmer). Percent inhibition was calculated as followed: % Inhibition=100%*(Well−Neg)/(Pos−Neg) Neg, negative control, DMSO Pos, positive control, 10 μM Puromycin
metric: pEC50
Give bare numbers, as −log10 of the molar value.

Solved cases below.
• COc1nn(C)cc1C(=O)N[S@@]1(=O)=NC(=O)c2ccc3c(c2)N(C[C@@H]2CC[C@H]2[C@](O)(C#CCN(C)C)/C=C/C[C@H](C)C1)C[C@@]1(CCCc2cc(Cl)ccc21)CO3 = 7.45
• CCCO[C@H]1/C=C/C[C@H](C)C[S@@](=O)(NC(=O)c2cn(C)nc2OC)=NC(=O)c2ccc3c(c2)N(C[C@@H]2CC[C@H]21)C[C@@]1(CCCc2cc(Cl)ccc21)CO3 (mixture of isomers) = 6.25
• COc1nn(C)cc1C(=O)N[S@@]1(=O)=NC(=O)c2ccc3c(c2)N(C[C@@H]2CC[C@H]2[C@@H](OC)/C=C/[C@H](OC(C)=O)[C@H](C)[C@H]1C)C[C@@]1(CCCc2cc(Cl)ccc21)CO3 = 7.05
• COc1nn(C)cc1C(=O)N[S@@]1(=O)=NC(=O)c2ccc3c(n2)N(C[C@@H]2CC[C@H]2[C@@H](OC)/C=C/[C@@H](OC)[C@H](C)C1)C[C@@]1(CCCc2cc(Cl)ccc21)CO3 = 6.29

Please examine the following record next.
Q: Fill in the recorded pEC50 for this compound, with SKBR3 cells as test system: COc1nn(C)cc1C(=O)N[S@@]1(=O)=NC(=O)c2ccc3c(c2)N(C[C@@H]2CC[C@H]2[C@@H](OC)[C@H]2CN(C)[C@H]4CO[C@H](C(C)C1)[C@@H]24)C[C@@]1(CCCc2cc(Cl)ccc21)CO3 (some centres unmarked)
Ans: 7.00
